Tested on: Plasmodium falciparum
Test: Antiplasmodial activity against Plasmodium falciparum in human red blood cells after 4 hrs
Type: functional, organism-based
pIC50: −log10 of the molar value.
Rule: pIC50 under 6 gives 0, otherwise 1.

- smilesRepr: "COc1cccc2c(-c3cc(CCCO)c4c(c3O)[C@@H](C)N[C@H](C)C4)c(C)cc(OC)c12"
  assayedSystem: "Plasmodium falciparum"
  classification: 0
- smilesRepr: "COc1cccc2c(-c3cc(CNCCCCCCNS(=O)(=O)c4cccc5c(N(C)C)cccc45)c4c(c3O)[C@@H](C)N[C@H](C)C4)c(C)cc(OC)c12"
  assayedSystem: "Plasmodium falciparum"
  classification: 1
- smilesRepr: "COc1cccc2c(-c3ccc4c(c3O)[C@@H](C)N[C@H](C)C4)c(C)cc(OC)c12"
  assayedSystem: "Plasmodium falciparum"
  classification: 1
- smilesRepr: "COC(=O)/C=C/c1cc(-c2c(C)cc(OC)c3c(OC)cccc23)c(OCc2ccccc2)c2c1C[C@@H](C)N(Cc1ccccc1)[C@@H]2C"
  assayedSystem: "Plasmodium falciparum"
  classification: 1
- smilesRepr: "COc1cccc2c(-c3cc(CNCCCCCCNS(=O)(=O)c4cccc5c(N(C)C)cccc45)c4c(c3OCc3ccccc3)[C@@H](C)N(Cc3ccccc3)[C@H](C)C4)c(C)cc(OC)c12"
  assayedSystem: "Plasmodium falciparum"
  classification: 1
